Molecular target: CCR2 (Homo sapiens)
Construct: Membranes were prepared from THP-1 cells; endogenous in cells; host or cells: THP-1 cells (membrane preparation)
Sequence (P41597 1-360 isoform P41597-2): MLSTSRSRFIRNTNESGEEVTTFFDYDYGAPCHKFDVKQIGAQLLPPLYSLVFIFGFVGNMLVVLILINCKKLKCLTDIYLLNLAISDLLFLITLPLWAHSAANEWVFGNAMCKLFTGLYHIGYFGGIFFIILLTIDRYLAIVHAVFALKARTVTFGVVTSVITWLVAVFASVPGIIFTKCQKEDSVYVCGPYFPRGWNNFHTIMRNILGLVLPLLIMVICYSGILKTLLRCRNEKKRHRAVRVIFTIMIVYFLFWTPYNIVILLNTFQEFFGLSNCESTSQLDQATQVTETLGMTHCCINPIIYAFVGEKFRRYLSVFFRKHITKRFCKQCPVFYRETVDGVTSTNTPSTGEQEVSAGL
Assay: CCR2 receptor membrane binding assay ([125I]MCP-1, THP-1 cell membranes, SPA beads)
Settings: @ 10 μM test compound; THP-1 membranes; read-out: CCR2 % ctrl @ 10 μM
Kindly state remaining activity at 10 µM for each of the entries shown.
Numbers only, in %.

Recorded remaining activity at 10 µM, per entry:
>>> print(df.to_string())
                                   compound          system_name              measured_metric  measured_value
0  Cc1c(NCc2ccc(C(C)(C)C)cc2)ncnc1C(=O)N1CCC(N2CCCCC2)C1 (stereo not shown)  CCR2 (Homo sapiens)  remaining activity at 10 µM              32
1  Cc1c(NCCc2ccc(Cl)c(Cl)c2)ncnc1C(=O)N1CCC(N2CCCCC2)CC1  CCR2 (Homo sapiens)  remaining activity at 10 µM              13
2  COC1CCN(C2CCN(C(=O)c3ncnc(NCC4CCN(c5ccccc5)CC4)c3C)CC2)CC1  CCR2 (Homo sapiens)  remaining activity at 10 µM              21
3  Cc1c(NCc2ccc(C(F)(F)F)cc2)ncnc1C(=O)N1CCC(N2CCC(O)CC2)CC1  CCR2 (Homo sapiens)  remaining activity at 10 µM              32
4  Cc1c(NCc2ccc(C(C)(C)C)cc2)ncnc1C(=O)N1CCC(N2CCC(NS(=O)(=O)C(C)C)CC2)CC1  CCR2 (Homo sapiens)  remaining activity at 10 µM              11

Give remaining activity at 10 µM for all compounds that follow.
1. CCS(=O)(=O)N(C)C1CCN(C2CCN(C(=O)c3ncnc(NC[C@H]4CCN(c5ccccc5)C4)c3C)CC2)CC1
2. Cc1c(NCCc2ccc(C(C)C)cc2)ncnc1C(=O)N1CCC(N2CCC(O)CC2)CC1
3. Cc1c(NCc2ccc(Cl)c(Cl)c2)ncnc1C(=O)N1CCC(N2CCC(O)C2)CC1 (stereo not shown)
4. Cc1c(NCCc2ccc(C(F)(F)F)cc2)ncnc1C(=O)N1CCC(N2CCC(O)CC2)CC1
5. Cc1c(NCC2CCCCC2)ncnc1C(=O)N1CCC(N2CCC(O)CC2)CC1

Output:
1. 6
2. 13
3. 14
4. 29
5. 20

###

biological target: CCR2 (Homo sapiens, UniProt P41597); construct: Membranes were prepared from THP-1 cells; endogenous in cells; host or cells: THP-1 cells (membrane preparation); assay: CCR2 receptor membrane binding assay ([125I]MCP-1, THP-1 cell membranes, SPA beads); settings: @ 10 μM test compound; THP-1 membranes; read-out: CCR2 % ctrl @ 10 μM
I'd be grateful if you could share measured remaining activity at 10 µM for these entries.

>>> print(df.to_string())
                                   compound  measured_value
0  Cc1c(NC[C@@H]2C[C@H]2c2ccccc2)ncnc1C(=O)N1CCC(N2CCC(N(C)S(C)(=O)=O)CC2)CC1 [Example 152]              7%
1  Cc1nc(NCC2CCCN(c3ccccc3)C2)c(C)c(C(=O)N2CCC(N3CCC(N(C)S(C)(=O)=O)CC3)CC2)n1 (stereo not shown) [Example 87]              9%
2  Cc1c(NCc2cccc(C(F)(F)F)c2)ncnc1C(=O)N1CCC(N2CCC(O)CC2)CC1 [Example 4]             43%

Task: API: value(readout=remaining activity at 10 µM, system=CCR2 (Homo sapiens, UniProt P41597)) for record Cc1c(NCCc2ccc(OC(F)(F)F)cc2)ncnc1C(=O)N1CCC(N2CCC(O)CC2)CC1 [Example 14]
Output: 22%

###

target: CCR2 (Homo sapiens, UniProt P41597); construct: Membranes were prepared from THP-1 cells; endogenous in cells; test: CCR2 receptor membrane binding assay ([125I]MCP-1, THP-1 cell membranes, SPA beads); conditions: dissociation constant hKi; [125I]MCP-1 binding to THP-1 membranes
measured-metric: pKi
Give bare numbers, as −log10 of the molar value.

The cases that follow already have their pKi on record.
                                   compound                          system_name  measured_metric  measured_value
0  Cc1c(NCc2ccc(Cl)c(Cl)c2)ncnc1C(=O)N1CCC(N2CCC(O)C2)CC1 (stereo not drawn) [Example 238]  CCR2 (Homo sapiens, UniProt P41597)              pKi            6.62
1  Cc1c(NCC2CCC(c3ccccc3)CC2)ncnc1C(=O)N1CCC(N2CCCCC2)CC1 (stereo not drawn) [Example 138]  CCR2 (Homo sapiens, UniProt P41597)              pKi            6.84
2  Cc1c(NCc2ccc(C(C)(C)C)cc2)ncnc1C(=O)N1CCC(N2CCC(Oc3ccc(F)c(F)c3)CC2)CC1 [Example 203]  CCR2 (Homo sapiens, UniProt P41597)              pKi            6.19
3  CNC(=O)C1CCN(C2CCN(C(=O)c3ncnc(NCc4ccc(C(C)(C)C)cc4)c3C)CC2)CC1 [Example 261]  CCR2 (Homo sapiens, UniProt P41597)              pKi            6.92
4  Cc1c(NCc2ccc(Cl)c(Cl)c2)ncnc1C(=O)N1CCC(N2CCC(S(N)(=O)=O)CC2)CC1 [Example 228]  CCR2 (Homo sapiens, UniProt P41597)              pKi            6.48
5  Cc1cc(CNc2ncnc(C(=O)N3CCC(N4CCC(O)CC4)CC3)c2C)ccc1F [Example 118]  CCR2 (Homo sapiens, UniProt P41597)              pKi            5.67
6  CO[C@@H]1COCC[C@@H]1NC1CCN(C(=O)c2ncnc(NC[C@@H]3CCC[C@H](c4ccc(C)o4)C3)c2C)CC1 [Example 275db]  CCR2 (Homo sapiens, UniProt P41597)              pKi            7.48
7  CNC(=O)C1CCN(C2CCN(C(=O)c3ncnc(NCC4CCCC(c5ccccc5)C4)c3C)CC2)CC1 (stereo not drawn) [Example 159i]  CCR2 (Homo sapiens, UniProt P41597)              pKi            7.62

Required: pKi, one value per compound below.
1. Cc1c(NCc2cccc(Cl)c2)ncnc1C(=O)N1CCC(N2CCCCC2)CC1 [Example 140]
2. Cc1c(NC2COc3ccccc3C2)ncnc1C(=O)N1CCC(N2CCC(O)CC2)CC1 (stereo not drawn) [Example 24]
3. Cc1nc(NCC2COc3ccccc3C2)c(C)c(C(=O)N2CCC(N3CCC(N(C)S(C)(=O)=O)CC3)CC2)n1 (stereo not drawn) [Example 79]
4. Cc1c(NCc2ccc(C(C)(C)C)cc2)ncnc1C(=O)N1CCC(N[C@@H]2CCCN(S(C)(=O)=O)C2)CC1 [Example 228gd]

Output:
1: 6.16; 2: 5.39; 3: 7.05; 4: 5.96

###

Biological target: CCR2 (Homo sapiens, UniProt P41597)
Construct: Membranes were prepared from THP-1 cells; endogenous in cells
Sequence (P41597 1-360 isoform P41597-2): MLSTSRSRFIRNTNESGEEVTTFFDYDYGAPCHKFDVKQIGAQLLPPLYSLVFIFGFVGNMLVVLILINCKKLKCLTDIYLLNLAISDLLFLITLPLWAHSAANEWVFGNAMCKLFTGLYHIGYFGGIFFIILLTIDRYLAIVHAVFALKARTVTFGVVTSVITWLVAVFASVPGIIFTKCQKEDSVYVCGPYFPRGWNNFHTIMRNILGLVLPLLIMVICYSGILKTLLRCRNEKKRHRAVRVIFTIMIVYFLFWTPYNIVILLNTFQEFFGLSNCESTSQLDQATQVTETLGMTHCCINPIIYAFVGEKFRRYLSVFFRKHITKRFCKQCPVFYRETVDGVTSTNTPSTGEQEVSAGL
Assay: CCR2 receptor membrane binding assay ([125I]MCP-1, THP-1 cell membranes, SPA beads)
Details: dissociation constant hKi; [125I]MCP-1 binding to THP-1 membranes
Threshold-based label: Ki under 1000 nM gives label 1, Ki not under 1000 nM gives label 0.

As a guide, the following entries are already answered.
>>> print(df.to_string())
                                test_smiles  label_value
0  Cc1ccc(CNc2ncnc(C(=O)N3CCC(N4CCC(O)CC4)CC3)c2C)cc1C      label 1
1  Cc1c(NCc2ccc(Cl)c(Cl)c2)ncnc1C(=O)N1CCC(N2CCC(C(F)(F)F)CC2)CC1      label 1
2  Cc1nc(NCc2ccc(C(C)(C)C)cc2)c(C)c(C(=O)N2CCC(N3CCC(S(=O)(=O)N(C)C)CC3)CC2)n1      label 0

Now take the following molecule into account.
Task: Just wondering, is Ki of `CNC(=O)[C@@H]1CCN(C2CCN(C(=O)c3ncnc(NCc4ccc(Cl)c(F)c4)c3C)CC2)C1` below 1000 nM?
Output: label 1

Where these numbers come from: patent US8835440B2
